FYI, the data here is from patent US20240174690A1.

tested on: AsPC-1 cells; test: AsPC-1 CTG proliferation assay (120 h) (pancreatic cancer, G12D); type: cell-based; settings: Homo sapiens, ASPC1
pIC50: −log10 of the molar value.
# Lookup of reported pIC50 keyed by entry

Molecule | Target System | pIC50
CO[C@@H]1C[C@@H]([C@H](C)Oc2cc(-c3ccn(C)n3)nc(-c3onc4c3CCC[C@@]43CCCc4sc(N)c(C#N)c43)n2)N(C)C1 | AsPC-1 cells | 5.09
C[C@H](Oc1cc(-n2ccc(C(N)=O)n2)nc(-c2noc3c2CCC[C@@]32CCCc3sc(N)c(C#N)c32)n1)[C@@H]1CCCN1C | AsPC-1 cells | 6.16
C[C@H](Oc1cc(C2CCCO2)nc(-c2noc3c2CCC[C@@]32CCCc3sc(N)c(C#N)c32)n1)[C@@H]1CCCN1C (stereo partly drawn) | AsPC-1 cells | 5.66
C[C@H](Oc1cc(-c2ccn([C@H]3CCOC3)n2)nc(-c2noc3c2CCC[C@@]32CCCc3sc(N)c(C#N)c32)n1)[C@@H]1CCCN1C | AsPC-1 cells | 5.56
C[C@H](Oc1nc(-c2noc3c2CCC[C@@]32CCCc3sc(N)c(C#N)c32)nc(N2CCNC3(CC3)C2)c1F)[C@@H]1C[C@@H](F)CN1C | AsPC-1 cells | 7.96
C[C@H](Oc1cc(-n2cc(Cn3cncn3)nn2)nc(-c2noc3c2CCC[C@@]32CCCc3sc(N)c(C#N)c32)n1)[C@@H]1CCCN1C | AsPC-1 cells | 5.68

====

system: NCI-H2122 cells; assay: NCI-H2122 CTG proliferation assay (120 h) (NSCLC, G12C); type: cell-based; conditions: Homo sapiens
Measured Parameter: log10 IC50 (log10 of the value in nM)

Compound | log10 IC50
C[C@H](Oc1cc(N2C[C@@H](N(C)C)[C@@H](F)C2)nc(-c2noc3c2CCC[C@@]32CCCc3sc(N)c(C#N)c32)n1)[C@@H]1CCCN1C [II-11] | 3.55
C[C@H](Oc1cc(N2CCCC2=O)nc(-c2noc3c2CCC[C@@]32CCCc3sc(N)c(C#N)c32)n1)[C@@H]1CCCN1C [II-73] | 3.21
C[C@H](Oc1cc(N2CCNC3(CCC3)C2)nc(-c2onc3c2CCC[C@@]32CCCc3sc(N)c(C#N)c32)n1)[C@@H]1CCCN1C [I-3] | 3.53
C[C@H](Oc1cc(-n2ccsc2=O)nc(-c2noc3c2CCC[C@@]32CCCc3sc(N)c(C#N)c32)n1)[C@@H]1CCCN1C [II-135] | 2.05
CC(C)N1CCCN(c2cc(-c3ccn(C)n3)nc(-c3noc4c3CCC[C@@]43CCCc4sc(N)c(C#N)c43)n2)[C@@H](C)C1 [II-170] | 2.97
C[C@H](Oc1cc(-c2ccn3ncnc3c2)nc(-c2onc3c2CCC[C@@]32CCCc3sc(N)c(C#N)c32)n1)[C@@H]1CCCN1C [I-33] | 3.15

====

tested on: LOVO cells; assay: LOVO CTG proliferation assay (120 h) (CRC, G13D); format: cell-based; settings: Homo sapiens, CTG 120 h
pIC50: −log10 of the molar value.

Compound | pIC50
C[C@H](Oc1cc(C2CCCO2)nc(-c2noc3c2CCC[C@@]32CCCc3sc(N)c(C#N)c32)n1)[C@@H]1CCCN1C (stereo partly drawn) | 7.04
C[C@H](Oc1cc(-c2cc[nH]n2)nc(-c2noc3c2CCC[C@@]32CCCc3sc(N)c(C#N)c32)n1)[C@@H]1CCCN1C | 7.30
CO[C@H]1CCN(C)[C@@H]1[C@H](C)Oc1cc(-n2ccc(C(=O)N[C@@H]3CCOC3)n2)nc(-c2onc3c2CCC[C@@]32CCCc3sc(N)c(C#N)c32)n1 | 7.54
